# experimental system: Mannose-6-phosphate isomerase (Homo sapiens)
# test method notes: MPI inhibition at elevated mannose 6-phosphate – biochemical, fluorescence intensity, high mannose 6-phosphate, primary screen (AID 1220)
# measurement conditions: recombinant PMI enzyme, coupled fluorescence intensity; at 20 µM
Among all 190,000 compounds or so, about 1,300 (0.68%) were called active. No stated cut-off is given here; in the data, active means inhibition above about 50%; inactive means the rest. Shown is part of a subset that was picked to be rich in actives.
Hello, when you answer, please use one of the following outcomes: T = active, F = inactive

For "CN(C)CCCN(C(=O)COc1ccccc1)c1nc2c(F)cccc2s1" , which call appears in the assay record?
F

For "CN(C)CCCN(C(=O)CCc1ccccc1)c1nc2c(F)cccc2s1" , which call appears in the assay record?
F

For "CN(C)CCCN(C(=O)CCOc1ccccc1)c1nc2c(F)cccc2s1" , which call appears in the assay record?
T

For CC1(C)CC(=O)C2=C(C1)OC(N)=C(C#N)C2c1ccccc1[N+](=O)[O-] (stereo unspecified) , which call appears in the assay record?
F

For "Cc1ccc(SCCNC(=O)CN(c2ccc3c(c2)OCO3)S(C)(=O)=O)cc1" , which call appears in the assay record?
F

For "CCCc1nc(N)c(C#N)c(-c2cccnc2)c1CC" , which call appears in the assay record?
F

---

# experimental system: Mannose-6-phosphate isomerase (Homo sapiens) (UniProt P34949)
# Sequence (P34949 whole entry, looked up): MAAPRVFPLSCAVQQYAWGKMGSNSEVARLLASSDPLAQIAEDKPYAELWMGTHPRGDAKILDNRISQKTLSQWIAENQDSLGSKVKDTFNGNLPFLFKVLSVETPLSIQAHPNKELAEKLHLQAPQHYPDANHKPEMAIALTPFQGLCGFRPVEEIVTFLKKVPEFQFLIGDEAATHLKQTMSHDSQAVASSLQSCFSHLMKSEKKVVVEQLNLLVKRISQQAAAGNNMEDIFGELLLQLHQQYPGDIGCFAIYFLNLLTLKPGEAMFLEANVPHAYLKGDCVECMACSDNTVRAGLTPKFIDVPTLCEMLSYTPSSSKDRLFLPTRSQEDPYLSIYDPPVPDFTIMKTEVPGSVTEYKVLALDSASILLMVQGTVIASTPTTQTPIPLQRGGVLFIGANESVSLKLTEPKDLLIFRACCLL
# test method notes: MPI inhibition at elevated mannose 6-phosphate – biochemical, fluorescence intensity, high mannose 6-phosphate, primary screen (AID 1220)
# measurement conditions: recombinant PMI enzyme, coupled fluorescence intensity; at 20 µM; active compounds read high
In all, about 190,000 compounds went through this assay and about 1,300 (0.68%) were called active. The list comes from a sample in which actives are over-represented; it also holds close analogues and randomly drawn compounds.
Would you mind telling me the reported inhibition of each entry?
Give just the number in %; leave the unit off.

Which measured inhibition value corresponds to "CC(=O)c1ccc(NC(=S)NCc2cccnc2)cc1" ?
-2.6

Which measured inhibition value corresponds to CCC(=O)NC(c1ccc([N+](=O)[O-])cc1)c1c(O)ccc2ccccc12 (stereo unspecified) ?
14.3

Which measured inhibition value corresponds to "CN(C)CC/C=C1/c2ccccc2Sc2c(O)cc(Cl)cc21" ?
50

Which measured inhibition value corresponds to "Nc1c([N+](=O)[O-])c(=O)sc2ccccc12" ?
-0.6

Which measured inhibition value corresponds to "Cc1ccc(S(=O)(=O)n2cnc3ccccc32)c(C)c1" ?
81.3

Which measured inhibition value corresponds to "CCCNC(=O)Cc1c(O)c2ccccc2[nH]c1=O" ?
6.5

Which measured inhibition value corresponds to "COc1cc(Sc2ccc(C)cc2)c(OC)cc1N" ?
67.2

Which measured inhibition value corresponds to CCc1ccc(N2CSC3=C(C#N)C(c4cccs4)CC(=O)N3C2)cc1 (stereo unspecified) ?
-68.6

Which measured inhibition value corresponds to "Cc1cc(C)c(O)c(N)c1" ?
61.3

Which measured inhibition value corresponds to "CN(C)CC/C=C1\c2ccccc2Sc2ccc(Cl)cc21" ?
-12.5

Which measured inhibition value corresponds to "O=S(=O)(N/N=C/c1ccc(F)cc1)c1ccccc1" ?
4.7

Which measured inhibition value corresponds to "CCOc1ccc(N(CC(=O)N/N=C/c2cccnc2)S(C)(=O)=O)cc1" ?
-3.8

Which measured inhibition value corresponds to CCc1ccccc1N1CSC2=C(C#N)C(c3ccccc3F)CC(=O)N2C1 (stereo unspecified) ?
-5.1

Which measured inhibition value corresponds to N#CC1=C2SCN(c3ccccc3)CN2C(=O)CC1c1ccccc1Cl (stereo unspecified) ?
-41

Which measured inhibition value corresponds to "COc1ccc(-n2cc(CNCC3CCOCC3)c(-c3cccc(F)c3)n2)cc1" ?
4.6

Which measured inhibition value corresponds to "Nc1ccc(NC(=O)c2ccco2)c(Cl)c1" ?
-1.2

Which measured inhibition value corresponds to "Cc1cc(C)c2nc(N)sc2c1" ?
7.6

Which measured inhibition value corresponds to N#CC1=C2SCN(c3ccccc3)CN2C(=O)CC1c1cccs1 (stereo unspecified) ?
-2

Which measured inhibition value corresponds to N#CC1=C2SCN(Cc3ccccc3)CN2C(=O)CC1c1ccccc1F (stereo unspecified) ?
52.1

Which measured inhibition value corresponds to "COC(=O)c1ccc(Sc2ccc(C)cc2)c(N)c1" ?
9.7

Which measured inhibition value corresponds to "Nc1ccc2nc(-c3ccccc3)sc2c1" ?
26.8

Which measured inhibition value corresponds to "Cc1ccc2cc(C#N)c(N3CCCC3)nc2c1C" ?
-56.8

Which measured inhibition value corresponds to "COCCCNC(=O)CCCCCNS(=O)(=O)c1ccc(Br)cc1" ?
-6.2

Which measured inhibition value corresponds to CC(C)Oc1ccc(C(CC(=O)O)n2cnnn2)cc1 (stereo unspecified) ?
2

Which measured inhibition value corresponds to "Nc1ccc2c(c1)sc1ccccc12" ?
55.2

Which measured inhibition value corresponds to "Cc1cc(C)c2ccc(N)nc2c1O" ?
26
